target: Zebrafish tac3 receptor (zebrafish); assay: cell-based or functional assay
Numbered stars: 1 amine (or outer) side, 2 acyl side, 3 side chain; on linkers, the order of the positions; unused ones are H or OH. Square brackets hold non-standard residues; d marks the D form. Suc = O=C(CCC(=O)[*:2])[*:1]; NMeV = CN[C@H](C(=O)O)C(C)C; βAla = NCCC(=O)O
valueType: reduction of the NKB-induced response (CRE-Luc)

These solved cases illustrate the format of a correct answer.
Suc-DSF[NMeV][βAla]LM-NH2 (SMILES CSCC[C@H](NC(=O)[C@H](CC(C)C)NC(=O)CCNC(=O)[C@H](C(C)C)N(C)C(=O)[C@H](Cc1ccccc1)NC(=O)[C@H](CO)NC(=O)[C@H](CC(=O)O)NC(=O)CCC(=O)O)C(N)=O) [Ant-3] = ~60%
Suc-D[dW][NMeV][βAla]LM-NH2 (SMILES CSCC[C@H](NC(=O)[C@H](CC(C)C)NC(=O)CCNC(=O)[C@H](C(C)C)N(C)C(=O)[C@@H](Cc1c[nH]c2ccccc12)NC(=O)[C@H](CC(=O)O)NC(=O)CCC(=O)O)C(N)=O) [Ant-5] = ~60%

From here, focus on the item given below.
Task item: Any idea what reduction of the NKB-induced response (CRE-Luc) was measured for Suc-DF[NMeV][βAla]LM-NH2 (SMILES CSCC[C@H](NC(=O)[C@H](CC(C)C)NC(=O)CCNC(=O)[C@H](C(C)C)N(C)C(=O)[C@H](Cc1ccccc1)NC(=O)[C@H](CC(=O)O)NC(=O)CCC(=O)O)C(N)=O) [Ant-2] ?
Reply: ~60%
